Values from patent US20240262835A1

test: Hepatic metabolic stability (HMS) assay, dog hepatocytes; conditions: dog, cryopreserved hepatocytes
measure: half-life at 3 μM (min)

{"compound": "O=c1ccc2ccc(O)cc2o1 [Ref. 2, 7-Hydroxycoumarin, reference compound]", "measure": "half-life at 3 μM", "measurement": 2.9}

* * *

List of CLint (hep) M values.
tested on: cryopreserved hepatocytes; assay: Hepatic metabolic stability (HMS) assay, mouse hepatocytes; conditions: mouse, hepatocytes

{"compound": "O=c1ccc2ccc(O)cc2o1 [Ref. 2, 7-Hydroxycoumarin, reference compound]", "target": "cryopreserved hepatocytes", "value-unit": "μL/min/10^6", "CLint (hep) M": 608.1}
{"compound": "CN(C(=O)c1cc2c(cn1)nc(N)c1cncn12)C1COc2cc(C(F)(F)F)ccc21 (stereo not shown) [Compound 21]", "target": "cryopreserved hepatocytes", "value-unit": "μL/min/10^6", "CLint (hep) M": 8.9}
{"compound": "CN(C(=O)c1cc2c(cn1)nc(N)c1cncn12)C1COc2cc(C(F)(F)F)ccc21 (stereo not shown) [Compound 19]", "target": "cryopreserved hepatocytes", "value-unit": "μL/min/10^6", "CLint (hep) M": 9.8}
{"compound": "CN(C(=O)c1cc2c(cn1)nc(N)c1cncn12)C1CC(F)(F)c2cc(C(F)(F)F)ccc21 (stereo not shown) [Compound 24]", "target": "cryopreserved hepatocytes", "value-unit": "μL/min/10^6", "CLint (hep) M": 18.2}

* * *

target: CYP2D6 (Homo sapiens (Human)); test: CYP isoforms inhibitory assay in human liver microsome, CYP2D6; conditions: read-out: IC50 CYP2D6, substrate dextromethorphan
Sequence (P10635 whole entry, canonical isoform): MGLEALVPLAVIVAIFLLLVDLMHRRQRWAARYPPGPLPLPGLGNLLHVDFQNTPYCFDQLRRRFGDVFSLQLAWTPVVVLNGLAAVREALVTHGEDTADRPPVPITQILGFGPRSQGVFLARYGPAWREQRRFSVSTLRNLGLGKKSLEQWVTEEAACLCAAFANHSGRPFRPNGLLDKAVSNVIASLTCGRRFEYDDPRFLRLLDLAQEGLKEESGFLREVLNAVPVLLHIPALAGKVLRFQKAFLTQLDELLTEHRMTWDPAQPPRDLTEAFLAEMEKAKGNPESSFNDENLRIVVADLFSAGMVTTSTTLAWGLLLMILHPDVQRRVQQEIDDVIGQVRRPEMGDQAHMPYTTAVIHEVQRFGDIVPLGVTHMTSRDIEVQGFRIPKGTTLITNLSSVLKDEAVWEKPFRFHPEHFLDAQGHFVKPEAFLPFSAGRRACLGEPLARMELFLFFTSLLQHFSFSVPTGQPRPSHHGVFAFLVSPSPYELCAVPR
pIC50: −log10 of the molar value.

{"molecule": "CN(C(=O)c1ccc2nc(N)c3cncn3c2c1)C1COc2cc(C(F)(F)F)ccc21 (stereo not shown)", "pIC50": "< 4.52"}

* * *

C24 h by entry:
test: In vivo pharmacokinetics assay in mice via IV and PO; parameters: species or system ICR mice; details: PO 10 mg/kg, plasma

{"compound": "CN(C(=O)c1cc2c(cn1)nc(N)c1cncn12)C1COc2cc(C(F)(F)F)ccc21 (stereo not shown) [Compound 19]", "C24 h (ng/mL)": 178}
{"compound": "CN(C(=O)c1cc2c(cn1)nc(N)c1cncn12)C1CC(F)(F)c2cc(C(F)(F)F)ccc21 (stereo not shown)", "C24 h (ng/mL)": 186}
{"compound": "CN(C(=O)c1cc2c(cn1)nc(N)c1cncn12)C1COc2cc(C(F)(F)F)ccc21 (stereo not shown) [Compound 21]", "C24 h (ng/mL)": 415}
{"compound": "CN(C(=O)c1ccc2nc(N)c3cncn3c2c1)C1COc2cc(C(F)(F)F)ccc21 (stereo not shown)", "C24 h (ng/mL)": 257}

* * *

assay: in vitro; conditions: human, microsomes
measure: microsomal CLint at 1 μM (µL/min/mg)

{"compound": "O=C(O)Cc1ccccc1Nc1c(Cl)cccc1Cl [Ref. 5, Diclofenac]", "measure": "microsomal CLint at 1 μM", "value-unit": "µL/min/mg", "measurement": 206}

* * *

assay: Hepatic metabolic stability (HMS) assay, cynomolgus monkey hepatocytes; settings: cynomolgus monkey, cryopreserved hepatocytes

{"molecule": "CN(C(=O)c1ccc2nc(N)c3cncn3c2c1)[C@@H]1COc2cc(C(F)(F)F)ccc21", "half-life at 1 μM / h": 1.11}
